// reported Amplitude per item
- tested-on: Nurr1 LBD Arg563Ala + His516Ala (Homo sapiens, UniProt P43354, H516A/R563A)
- Construct: Mutants of LAP2 Nurr1 were prepared by GenScript starting from LAP2 Nurr1 vector; made in house
- Sequence (P43354 with tags, fused parts or gaps H516A/R563A): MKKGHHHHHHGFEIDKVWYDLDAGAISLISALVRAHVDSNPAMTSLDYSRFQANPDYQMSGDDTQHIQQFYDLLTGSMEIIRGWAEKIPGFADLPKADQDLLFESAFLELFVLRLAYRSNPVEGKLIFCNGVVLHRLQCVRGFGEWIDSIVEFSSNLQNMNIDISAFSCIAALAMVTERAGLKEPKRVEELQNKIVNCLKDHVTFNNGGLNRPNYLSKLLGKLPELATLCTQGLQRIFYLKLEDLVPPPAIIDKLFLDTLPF
- test-description: MST binding to Arg563Ala + His516Ala double mutant Nurr1 LBD
- run-conditions: Table 1, MST amplitude, H516A/R563A

A selection of reference data follows.
Clc1ccc2[nH]ccc2c1 [5-chloroindole] : 26 + 2
Brc1cc2cc[nH]c2cc1Br [5,6-dibromoindole] : 43 + 5

Notebook: Clc1cc2cc[nH]c2cc1Cl [5,6-dichloroindole] , Amplitude read as 54 + 5

* * *

// reported Response Amplitude per item
- tested-on: Nurr1 LBD (wildtype) (Homo sapiens)
- Construct: made in house
- test-description: Microscale thermophoresis (MST) binding to wildtype Nurr1 LBD
- run-conditions: Table 2, MST, Wildtype

A selection of reference data follows.
Brc1cc2cc[nH]c2cc1Br [5,6-dibromoindole] : 31 + 1
Clc1cc2cc[nH]c2cc1Cl [5,6-dichloroindole] : 54 + 4
Brc1ccc2[nH]ccc2c1 [5-bromoindole] : 50 + 4

Notebook: Clc1ccc2[nH]ccc2c1 [5-chloroindole] , Response Amplitude read as 54 + 2

* * *

- tested-on: Nurr1 LBD (wildtype) (Homo sapiens, UniProt P43354)
- Construct: made in house
- Sequence (P43354 with tags, fused parts or gaps): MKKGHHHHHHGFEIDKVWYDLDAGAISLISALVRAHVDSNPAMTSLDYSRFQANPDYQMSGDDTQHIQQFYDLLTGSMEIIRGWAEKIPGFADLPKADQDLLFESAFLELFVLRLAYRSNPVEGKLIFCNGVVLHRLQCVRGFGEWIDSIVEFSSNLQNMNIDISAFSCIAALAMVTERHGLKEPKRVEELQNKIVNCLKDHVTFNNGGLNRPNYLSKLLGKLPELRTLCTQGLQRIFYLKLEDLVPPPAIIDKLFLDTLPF
- test-description: Microscale thermophoresis (MST) binding to wildtype Nurr1 LBD
- run-conditions: 0.2% Pluronic F127; read-out: KD
result-type: Kd (µM)
Numeric only. Scale: µM

Notebook: Clc1ccc2[nH]ccc2c1 , Kd read as 8.3

* * *

- tested-on: Nurr1 LBD Arg563Ala + His516Ala (Homo sapiens, UniProt P43354, H516A/R563A)
- Construct: Mutants of LAP2 Nurr1 were prepared by GenScript starting from LAP2 Nurr1 vector; made in house
- test-description: MST binding to Arg563Ala + His516Ala double mutant Nurr1 LBD
- run-conditions: Table 1, H516A/R563A relative to WT
result-type: Amplitude (% change)

Brc1cc2cc[nH]c2cc1Br [5,6-dibromoindole] : +39%
Brc1ccc2[nH]ccc2c1 [5-bromoindole] : ≥−86%
Clc1ccc2[nH]ccc2c1 [5-chloroindole] : −62%

Alright, here's another compound for you.
Notebook: Clc1cc2cc[nH]c2cc1Cl [5,6-dichloroindole] , Amplitude (% change) read as 0%

* * *

- tested-on: Nurr1 LBD (wildtype) (Homo sapiens, UniProt P43354)
- Construct: made in house
- test-description: Microscale thermophoresis (MST) binding to wildtype Nurr1 LBD
- run-conditions: Table 1, Nurr1 variant WT; read-out: KD
- Protocol: Concentration-dependent association of the indoles with the Nurr1 LBD was carried out using microscale thermophoresis. […] Data were collected using the Monolith NT.115 System (Nanotemper), with settings for all samples at 40% excitation power and 40% MST power. The initial fluorescence was recorded for 3 sec and the thermophoresis fluorescence response was recorded for 20 sec. […]
// reported pKd per item
# pKd: negative log10 of molar concentration; output just the value

Notebook: Brc1ccc2[nH]ccc2c1 , pKd read as 5.00

Notebook: Clc1cc2cc[nH]c2cc1Cl , pKd read as 5.35

Notebook: Brc1cc2cc[nH]c2cc1Br , pKd read as 5.66

Notebook: Clc1ccc2[nH]ccc2c1 , pKd read as 4.60

* * *

- tested-on: Nurr1 LBD Arg563Ala (Homo sapiens, UniProt P43354, R563A)
- Construct: Mutants of LAP2 Nurr1 were prepared by GenScript starting from LAP2 Nurr1 vector; made in house
- Sequence (P43354 with tags, fused parts or gaps R563A): as the sequence (P43354 with tags, fused parts or gaps H516A/R563A) above, with A180H counted along it
- test-description: MST binding to Arg563Ala mutant Nurr1 LBD
- run-conditions: Table 2, MST, Arg563Ala
result-type: Response Amplitude

A selection of reference data follows.
Brc1cc2cc[nH]c2cc1Br : 32 + 3 (ns)
Clc1ccc2[nH]ccc2c1 : 19 + 2 (****)
Clc1cc2cc[nH]c2cc1Cl : 47 + 3 (ns)

Alright, here's another compound for you.
Notebook: Brc1ccc2[nH]ccc2c1 , Response Amplitude read as ≤10 (****)

* * *

- tested-on: Nurr1 LBD Arg563Ala (Homo sapiens, UniProt P43354, R563A)
- Construct: Mutants of LAP2 Nurr1 were prepared by GenScript starting from LAP2 Nurr1 vector; made in house
- test-description: MST binding to Arg563Ala mutant Nurr1 LBD
- run-conditions: Table 1, Nurr1 variant R563A; read-out: KD
result-type: Kd (µM)
Numeric only. Scale: µM

Brc1cc2cc[nH]c2cc1Br [5,6-dibromoindole] : 11

Notebook: Clc1ccc2[nH]ccc2c1 [5-chloroindole] , Kd read as 13

Notebook: Clc1cc2cc[nH]c2cc1Cl [5,6-dichloroindole] , Kd read as 13

* * *

- tested-on: Nurr1 LBD His516Ala (Homo sapiens, UniProt P43354, H516A)
- Construct: Mutants of LAP2 Nurr1 were prepared by GenScript starting from LAP2 Nurr1 vector; made in house
- Sequence (P43354 with tags, fused parts or gaps H516A): as the sequence (P43354 with tags, fused parts or gaps H516A/R563A) above, with A227R counted along it
- test-description: MST binding to His516Ala mutant Nurr1 LBD
- run-conditions: Table 1, H516 relative to WT
result-type: KD (% change)

A selection of reference data follows.
Brc1ccc2[nH]ccc2c1 [5-bromoindole] : +10%
Brc1cc2cc[nH]c2cc1Br [5,6-dibromoindole] : +186%

Notebook: Clc1cc2cc[nH]c2cc1Cl [5,6-dichloroindole] , KD (% change) read as +166%

Notebook: Clc1ccc2[nH]ccc2c1 [5-chloroindole] , KD (% change) read as −36%

* * *

- tested-on: Nurr1 LBD Arg563Ala + His516Ala (Homo sapiens, UniProt P43354, H516A/R563A)
- Construct: Mutants of LAP2 Nurr1 were prepared by GenScript starting from LAP2 Nurr1 vector; made in house
- test-description: MST binding to Arg563Ala + His516Ala double mutant Nurr1 LBD
- run-conditions: Table 2, Arg563Ala + His516Ala; read-out: Affinity (KD)
- Experimental: The plasmid used for the expression of LAP2-tagged Nurr1 LBDs (LAP2 Nurr1) was prepared by GenScript (Piscataway, N.J.) as the product of gene synthesis and subcloning into pET-21a(+) Vector (GenScript) using the Ndel and Xhol sites within the MCS. Mutants of LAP2 Nurr1 were prepared by GenScript starting from LAP2 Nurr1 vector. Concentration-dependent association of the indoles with the Nurr1 LBD was carried out using microscale thermophoresis. […]
result-type: pKd
# pKd: negative log10 of molar concentration; output just the value

A selection of reference data follows.
Clc1cc2cc[nH]c2cc1Cl [5,6-dichloroindole] : 4.75
Brc1cc2cc[nH]c2cc1Br [5,6-dibromoindole] : 4.81

Alright, here's another compound for you.
Tested on Nurr1 LBD Arg563Ala + His516Ala (Homo sapiens, UniProt P43354, H516A/R563A): Clc1ccc2[nH]ccc2c1 [5-chloroindole] . Observed pKd: 5.14

* * *

// reported Kd per item
- tested-on: Nurr1 LBD (wildtype) (Homo sapiens)
- Construct: made in house
- test-description: Microscale thermophoresis (MST) binding to wildtype Nurr1 LBD
- run-conditions: Nurr1 LBD; read-out: KD
- Protocol: Concentration-dependent association of the indoles with the Nurr1 LBD was carried out using microscale thermophoresis. […] Data were collected using the Monolith NT.115 System (Nanotemper), with settings for all samples at 40% excitation power and 40% MST power. The initial fluorescence was recorded for 3 sec and the thermophoresis fluorescence response was recorded for 20 sec. […]
The reply should consist of the numeric value with the unit placed after it.

Clc1ccc2[nH]ccc2c1 : 15 µM

Alright, here's another compound for you.
Notebook: Brc1ccc2[nH]ccc2c1 , Kd read as 5 µM

* * *

- tested-on: Nurr1 LBD Arg563Ala (Homo sapiens, UniProt P43354, R563A)
- Construct: Mutants of LAP2 Nurr1 were prepared by GenScript starting from LAP2 Nurr1 vector; made in house
- test-description: MST binding to Arg563Ala mutant Nurr1 LBD
- run-conditions: Table 1, R563A relative to WT
result-type: Amplitude (% change) (%)
Numeric only. Scale: %

Clc1ccc2[nH]ccc2c1 [5-chloroindole] : −66

Alright, here's another molecule for you.
Notebook: Clc1cc2cc[nH]c2cc1Cl [5,6-dichloroindole] , Amplitude (% change) read as −13

* * *

- tested-on: Nurr1 LBD (wildtype) (Homo sapiens)
- Construct: made in house
- test-description: Microscale thermophoresis (MST) binding to wildtype Nurr1 LBD
- run-conditions: Table 1, MST amplitude, WT
result-type: Amplitude

Clc1ccc2[nH]ccc2c1 : 68 + 4
Brc1ccc2[nH]ccc2c1 : 72 + 8
Brc1cc2cc[nH]c2cc1Br : 31 + 1

Alright, here's another compound for you.
Tested on Nurr1 LBD (wildtype) (Homo sapiens): Clc1cc2cc[nH]c2cc1Cl . Observed Amplitude: 54 + 4

This collection of values is drawn from patent US20230255934A1.
